Target: HGFA (Homo sapiens)
Sequence (Q04756 373-655): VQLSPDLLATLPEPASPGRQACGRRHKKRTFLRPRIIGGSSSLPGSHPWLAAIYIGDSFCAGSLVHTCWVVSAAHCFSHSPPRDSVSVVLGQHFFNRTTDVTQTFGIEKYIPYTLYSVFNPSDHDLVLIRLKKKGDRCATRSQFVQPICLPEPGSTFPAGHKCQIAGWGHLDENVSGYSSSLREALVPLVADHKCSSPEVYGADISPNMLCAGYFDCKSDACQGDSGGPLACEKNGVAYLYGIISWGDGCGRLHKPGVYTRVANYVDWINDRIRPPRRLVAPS
Endpoint Name: pIC50
Note: pIC50 values are expressed as the negative base-10 logarithm of concentration in M.

# count of solved cases: 2
{"Sample Smiles": "CC[C@H](C)[C@H](NC(C)=O)C(=O)N[C@@H](CCC(N)=O)C(=O)N[C@@H](CO)C(=O)N[C@@H](CCCNC(=N)N)C(=O)c1nc2ccccc2s1", "pIC50": 4.70}
{"Sample Smiles": "CC[C@H](C)[C@H](NC(C)=O)C(=O)N[C@@H](CCC(=O)O)C(=O)N[C@@H](Cc1ccccc1)C(=O)N[C@@H](CCCNC(=N)N)C(=O)c1nc2ccccc2s1", "pIC50": 6.56}

Let us move to another entry and its pIC50.
Find the measured pIC50: item `CC[C@H](C)[C@H](NC(C)=O)C(=O)N[C@@H](CCC(N)=O)C(=O)N[C@@H](Cc1ccccc1)C(=O)N[C@@H](CCCNC(=N)N)C(=O)c1nc2ccccc2s1` , target or system HGFA (Homo sapiens).
7.52

Reference source: paper doi:10.1101/2025.05.09.652710v1
